Molecular target: Xanthine dehydrogenase/oxidase (Homo sapiens, UniProt P47989)
Sequence (P47989 whole entry): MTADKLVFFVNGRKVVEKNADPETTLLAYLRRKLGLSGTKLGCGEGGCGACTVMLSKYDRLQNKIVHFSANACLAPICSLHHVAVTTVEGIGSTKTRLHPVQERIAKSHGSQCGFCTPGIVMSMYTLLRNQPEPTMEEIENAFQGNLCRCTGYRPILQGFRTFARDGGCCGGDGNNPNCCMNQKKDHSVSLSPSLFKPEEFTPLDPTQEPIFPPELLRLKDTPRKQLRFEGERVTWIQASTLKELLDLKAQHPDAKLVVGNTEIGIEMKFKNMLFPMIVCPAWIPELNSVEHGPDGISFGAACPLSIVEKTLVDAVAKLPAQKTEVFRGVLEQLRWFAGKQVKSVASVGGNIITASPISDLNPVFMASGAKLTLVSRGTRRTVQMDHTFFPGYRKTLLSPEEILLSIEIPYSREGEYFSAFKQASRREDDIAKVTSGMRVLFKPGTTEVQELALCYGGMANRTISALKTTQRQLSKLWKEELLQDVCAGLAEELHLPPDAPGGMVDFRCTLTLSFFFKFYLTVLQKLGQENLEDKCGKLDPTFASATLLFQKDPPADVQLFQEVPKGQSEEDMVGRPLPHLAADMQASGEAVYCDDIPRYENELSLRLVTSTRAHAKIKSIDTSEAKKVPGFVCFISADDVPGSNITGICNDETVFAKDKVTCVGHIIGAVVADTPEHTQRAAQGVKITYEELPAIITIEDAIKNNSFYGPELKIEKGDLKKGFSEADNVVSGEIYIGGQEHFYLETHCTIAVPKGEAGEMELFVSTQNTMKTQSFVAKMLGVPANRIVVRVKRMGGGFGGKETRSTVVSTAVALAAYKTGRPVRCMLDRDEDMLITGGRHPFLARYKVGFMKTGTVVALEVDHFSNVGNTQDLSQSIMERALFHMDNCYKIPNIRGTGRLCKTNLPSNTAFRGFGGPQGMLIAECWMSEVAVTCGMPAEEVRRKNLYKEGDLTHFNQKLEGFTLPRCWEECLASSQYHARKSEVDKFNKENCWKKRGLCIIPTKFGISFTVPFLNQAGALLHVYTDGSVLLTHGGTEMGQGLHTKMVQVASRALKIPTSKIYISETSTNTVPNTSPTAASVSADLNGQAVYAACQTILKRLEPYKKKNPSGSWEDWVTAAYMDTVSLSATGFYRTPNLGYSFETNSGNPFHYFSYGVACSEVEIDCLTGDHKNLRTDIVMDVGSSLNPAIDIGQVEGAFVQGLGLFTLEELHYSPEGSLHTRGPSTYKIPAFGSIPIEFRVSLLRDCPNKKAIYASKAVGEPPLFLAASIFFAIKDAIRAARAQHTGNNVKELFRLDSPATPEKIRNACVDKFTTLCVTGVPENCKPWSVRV
observable: IC50 (nM)
Answers are plain numbers, in nM.

q: Give me measured IC50, please, for this compound: Cc1nc(-c2ccc(OCC(C)C)c(C#N)c2)sc1C(=O)O
a: 28
